target: T1, EDIII-DV4 (E protein domain III of dengue virus serotype DV-4) (dengue virus serotype DV-4, UniProt P09866 572-679)
T1 construct: also called DENV-4
T1 sequence (P09866 572-679, tags left off): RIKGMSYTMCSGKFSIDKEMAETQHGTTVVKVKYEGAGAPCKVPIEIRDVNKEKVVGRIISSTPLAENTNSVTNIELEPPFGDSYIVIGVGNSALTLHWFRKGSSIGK
Collected Kd values appear next to each entry.

{"binder": "C41 (antibody, V domains shown) VH: VKLLEQSGAELVKPGASVRLSCTASGFNIKDVYMSWVKQRPEQGLEWIGRIDPENGDTKYDPKFQGKATITADTSSNTAYLHLSSLTSGDTAVYYCSRGWEGFAYWGQGTLVTVSA VL: ELVMTQTPASLAVSLGQRATISCRASENVDKYGNSFMHWYQQKAGQPPKLLIYRASELQWGIPARFSGSGSRTDFTLTINPVEADDVATYFCQRSNEVPWTFGGGTKLEIK", "reading_unit": "nM", "Kd": 2.56}
{"binder": "antibody C88 (antibody, V domains shown) VH: QVQLVQSGAEVKKPGASVKVSCKASGFNIKDVYMSWVRQAPEQGLEWMGRIDPENGDTKYDPKLQGRVTMTADTSTNTAYMELRSLRSDDTAVYYCARGWEGFAYWGQGTLVTVSS VL: DIVMTQSPASLAVSLGERATISCRASENVDKYGNSFMHWYQQKPGQPPKLLIYRASELQWGVPDRFSGSGSGTDFTLTISSLQAEDVAVYYCQRSNEVPWTFGQGTKLEIK", "reading_unit": "nM", "Kd": 13}
{"binder": "B48+V2L (antibody, V domains shown) VH: QLQLVQSGAEVKKPGASVKVSCKAGFNIKDTYMSWVRQAPEQGLEWMGRIDPENGDTKYDPKLQGRVTMTADTSTNTAYMELRSLRSDDTAVYYCARGWEGFAYWGQGTLVTVSS VL: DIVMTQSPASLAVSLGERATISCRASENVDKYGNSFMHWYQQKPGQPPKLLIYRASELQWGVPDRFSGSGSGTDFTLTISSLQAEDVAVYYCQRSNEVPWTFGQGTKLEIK", "reading_unit": "nM", "Kd": 23.6}
